Test system: FLAP (5-lipoxygenase activating protein)
Assay: In vitro binding test: displacement of [3H]-7-chloro-3-(5-((3-fluoropyridin-2-yl)methoxy)-2-methylphenyl)-3,4-dihydroquinazolin-2(1H)-one from Sf9 microsome fractions
Set-up: species or system human and mouse
Conditions: Sf9 microsome fractions expressing FLAP; 100% = radioligand binding with 10 μM sodium 3-(3-(tert-butylsulfanyl)-1-(4-chlorobenzyl)-5-isopropyl-1H-indol-2-yl)-2,2-dimethylpropanoate, 0% = DMSO; test compound concentration not given
Please provide measured inhibitory rate (%) for the entries that follow.
The reply should consist of the numeric value with the unit placed after it.

Query the reported inhibitory rate (%) for FLAP (5-lipoxygenase activating protein); item: Cc1cc2c(cc1N1Cc3c(Cl)cnc(-c4c(C)nn(C)c4C)c3NC1=O)OC(c1ncccc1F)CC2 (stereo not drawn) [Example 13] 101%

Can you check Cc1cc2c(cc1N1Cc3c(cc(-c4c(C)noc4C)nc3C3CC3)NC1=O)OC(c1ncccc1F)CC2 (stereo not drawn) next? 90%

Can you check `COC(=O)c1ccc2c(c1)NC(=O)N(c1cc(OCc3cc(F)ccc3F)ccc1C)C2` next? 60%

Can you check `O=C(CCc1ccc(OCc2ncccc2F)cc1N1Cc2ccccc2NC1=O)NC1CC1` next? 62%

Can you check Cc1cc2c(cc1-n1c(=O)[nH]c3ccccc3c1=O)OC(c1ncccc1F)CC2 (stereo not drawn) next? 107%

Can you check O=C1COCCN1c1cc2c(c(C3CC3)n1)CN(c1cc3c(cc1Cl)CCC(c1ncccc1F)O3)C(=O)N2 (stereo not drawn) next? 100%

Can you check O=C1Nc2c(N3CCSCC3)ncc(Cl)c2CN1c1cc2c(cc1Cl)CCC(c1ncccc1F)O2 (stereo not drawn) next? 101%

Can you check COc1nccc2c1CN(c1cc3c(cc1C)CCC(c1ncccc1F)O3)C(=O)N2 (stereo not drawn) next? 103%

Can you check Cc1cc2c(cc1N1Cc3c(C4CC4)ccnc3NC1=O)OC(c1ncccc1F)CC2 (stereo not drawn) next? 67%

Can you check `Cc1ccc(OCc2ncccc2F)cc1N1Cc2c(Br)cncc2NC1=O` next? 103%

Can you check `Cc1ccc(OCc2c(F)cccc2F)cc1N1Cc2ccc(C(=O)NC(C)(C)C(=O)O)cc2NC1=O` next? 87%

Can you check `Cc1ccc(OCc2c(F)cccc2F)cc1N1Cc2[nH]ncc2NC1=O` next? 51%

Can you check `O=C1Nc2cc(CO)ccc2CN1c1cc(OCc2c(F)cccc2F)ccc1F` next? 85%

Can you check Cc1cc2c(cc1N1Cc3ccc(CO)cc3NC1=O)OC(c1ncccc1F)CC2 (stereo not drawn) next? 98%

Can you check `Cc1ccc(OCc2ncccc2F)cc1N1Cc2ccc(C(=O)NCC(F)(F)F)cc2NC1=O` next? 108%

Can you check Cc1cc2c(cc1N1Cc3c(Cl)ncnc3NC1=O)OC(c1ncccc1F)CC2 (stereo not drawn) next? 107%

Can you check `Cc1ccc(OCc2c(F)cccc2F)cc1N1Cc2ccc(-c3noc(=O)[nH]3)cc2NC1=O` next? 96%

Can you check O=C1OCCN1c1cc2c(c(C3CC3)n1)CN(c1cc3c(cc1Cl)CCC(c1ncccc1F)O3)C(=O)N2 (stereo not drawn) next? 114%

Can you check Cc1cc2c(cc1N1Cc3c(ccnc3C3CC3)NC1=O)OC(c1ncccc1F)CC2 (stereo not drawn) next? 99%

Can you check `Cn1c(=O)n(-c2cccc(OCc3c(F)cccc3F)c2)c(=O)c2ccncc21` next? 51%

Can you check `Cc1ccc(OCc2ncccc2F)cc1N1Cc2c(Cl)cccc2N(CC2CC2)C1=O` next? 105%

----------
System: FLAP (5-lipoxygenase activating protein)
Assay: In vitro binding test: displacement of [3H]-7-chloro-3-(5-((3-fluoropyridin-2-yl)methoxy)-2-methylphenyl)-3,4-dihydroquinazolin-2(1H)-one from Sf9 microsome fractions
Set-up: species or system human and mouse
Conditions: Sf9 microsome fractions expressing FLAP; 100% = radioligand binding with 10 μM sodium 3-(3-(tert-butylsulfanyl)-1-(4-chlorobenzyl)-5-isopropyl-1H-indol-2-yl)-2,2-dimethylpropanoate, 0% = DMSO; test compound concentration not given
Please provide measured inhibitory rate (%) for the entries that follow.
Quick note: give the figure in %, leave out the unit.

Can you share its inhibitory rate (%)? I mean this compound: O=C1Nc2nccc(C(F)(F)F)c2CN1c1cc2c(cc1Cl)CCC(c1ncccc1F)O2 (stereo not shown) 105

Can you check `Cc1ccc(OCc2ncccc2F)cc1N1Cc2ccc(C(=O)N(C)C3CC3)cc2NC1=O` next? 104

Can you check O=C(c1cc2c(c(C3CC3)n1)CN(c1cc3c(cc1Cl)CCC(c1ncccc1F)O3)C(=O)N2)N1CC2(COC2)C1 (stereo not shown) next? 104

Can you check COc1cncc2c1CN(c1cc3c(cc1C)CCC(c1ncccc1F)O3)C(=O)N2 (stereo not shown) next? 92

----------
Please provide measured inhibitory rate (%) for the entries that follow.
Test system: FLAP (5-lipoxygenase activating protein)
Experiment: In vitro binding test: displacement of [3H]-7-chloro-3-(5-((3-fluoropyridin-2-yl)methoxy)-2-methylphenyl)-3,4-dihydroquinazolin-2(1H)-one from Sf9 microsome fractions
Set-up: species or system human and mouse
Settings: Sf9 microsome fractions expressing FLAP; 100% = radioligand binding with 10 μM sodium 3-(3-(tert-butylsulfanyl)-1-(4-chlorobenzyl)-5-isopropyl-1H-indol-2-yl)-2,2-dimethylpropanoate, 0% = DMSO; test compound concentration not given
The reply should consist of the numeric value with the unit placed after it.

Can you share its inhibitory rate (%)? I mean this molecule: O=C1Nc2nccc(OCC(F)(F)F)c2CN1c1cc2c(cc1Cl)CCC(c1ncccc1F)O2 (stereo not drawn) 91%

Can you check O=C1Nc2cc(OC(F)F)nc(C3CC3)c2CN1c1cc2c(cc1Cl)CCC(c1ncccc1F)O2 (stereo not drawn) next? 88%

Can you check O=C1Nc2c(C3CC3)ncc(Cl)c2CN1c1cc2c(cc1Cl)CCC(c1ncccc1F)O2 (stereo not drawn) next? 89%
